molecular target: BTK (human); assay: radiometric filter-binding kinase assay; settings: compound 0.1 µM
QUANTITY_KIND: residual activity (%)
Answers are plain numbers, in %.

1. Cc1cccc(-c2nn(C(=S)Nc3ccccc3)cc2-c2ccnc3ccccc23)n1	110
2. CC1=C(CO)C(=O)O[C@@H]([C@@H](C)[C@H]2CC[C@H]3[C@@H]4C[C@H]5O[C@]56[C@@H](O)C=CC(=O)[C@]6(C)C4CC[C@]23C)C1 (stereo partly drawn)	118

// moving on: another record for residual activity
Exercise: Read off the recorded residual activity for COc1cc(O)c2c(c1)[C@H]1OC1C[C@H](O)[C@H](O)C(=O)/C=C\C[C@H](C)OC2=O (stereo partly drawn)
Solution: 115

----------
target: MAPKAPK2 (human) (UniProt P49137); test: radiometric filter-binding kinase assay; conditions: compound 0.1 µM
Sequence (P49137 whole entry, looked up): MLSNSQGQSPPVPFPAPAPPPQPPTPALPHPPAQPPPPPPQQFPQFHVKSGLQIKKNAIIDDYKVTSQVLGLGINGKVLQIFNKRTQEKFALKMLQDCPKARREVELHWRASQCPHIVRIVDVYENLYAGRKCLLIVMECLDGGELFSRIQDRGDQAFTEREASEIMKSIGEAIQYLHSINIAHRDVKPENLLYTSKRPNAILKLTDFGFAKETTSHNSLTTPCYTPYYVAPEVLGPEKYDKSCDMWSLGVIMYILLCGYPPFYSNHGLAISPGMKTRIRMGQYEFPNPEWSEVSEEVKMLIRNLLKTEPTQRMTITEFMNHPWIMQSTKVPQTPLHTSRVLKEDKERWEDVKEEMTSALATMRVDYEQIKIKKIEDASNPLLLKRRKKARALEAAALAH
Please provide measured residual activity for the entries that follow.
Answers are plain numbers, in %.

Below, each entry is followed by its recorded residual activity result.
1. COc1cc(O)c2c(c1)/C=C/C[C@H](O)[C@H](O)C(=O)/C=C\C[C@H](C)OC2=O	124
2. COc1ccc2c(c1)c1c3c(c4c5ccccc5n(C)c4c1n2CC(O)CN(C)C)C(=O)NC3=O (stereo not drawn)	107

// moving on: another record for residual activity
Exercise: Read off the recorded residual activity for Cc1ccc(-c2ccc3c(ccc4sc5c(c43)NC[C@@H](C)NC5=O)n2)cn1
Solution: 24

----------
target: UniProtKB O96017; test: radiometric filter-binding kinase assay; details: compound 1.0 µM
Sequence (O96017 whole entry, looked up): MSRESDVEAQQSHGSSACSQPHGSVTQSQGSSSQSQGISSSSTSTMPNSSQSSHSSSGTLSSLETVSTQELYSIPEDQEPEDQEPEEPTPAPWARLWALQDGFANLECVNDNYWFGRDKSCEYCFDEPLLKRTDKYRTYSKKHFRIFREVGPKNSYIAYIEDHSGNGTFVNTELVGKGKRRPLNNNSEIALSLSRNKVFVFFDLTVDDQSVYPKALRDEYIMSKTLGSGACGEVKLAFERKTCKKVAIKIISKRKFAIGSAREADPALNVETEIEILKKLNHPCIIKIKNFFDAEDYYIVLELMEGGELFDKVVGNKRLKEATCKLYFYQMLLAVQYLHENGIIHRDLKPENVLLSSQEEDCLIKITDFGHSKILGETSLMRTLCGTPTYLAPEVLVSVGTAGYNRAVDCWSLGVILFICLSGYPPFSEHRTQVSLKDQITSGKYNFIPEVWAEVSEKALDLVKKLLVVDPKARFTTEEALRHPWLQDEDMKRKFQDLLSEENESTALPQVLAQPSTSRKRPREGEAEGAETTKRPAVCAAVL
QUANTITY_KIND: residual activity (%)
Give bare numbers, in %.

Below, each entry is followed by its recorded residual activity result.
1) O=C(Nc1nc2cc(C(F)(F)F)cc(NC3CC3)n2n1)c1cccnc1	89
2) Cn1nc(Nc2ccc(F)cc2)c2c(N)ncnc21	103
3) O=C1NC(=S)N[C@@H]1Cc1c[nH]c2ccccc12	82

// moving on: another record for residual activity
Exercise: Read off the recorded residual activity for CCCCCc1ccc(/C=C/[C@H](O)[C@@H](CO)NC)cc1
Solution: 84

----------
target: CSK (human) (UniProt P41240); assay: radiometric filter-binding kinase assay; conditions: compound 1.0 µM
Sequence (P41240 whole entry, looked up): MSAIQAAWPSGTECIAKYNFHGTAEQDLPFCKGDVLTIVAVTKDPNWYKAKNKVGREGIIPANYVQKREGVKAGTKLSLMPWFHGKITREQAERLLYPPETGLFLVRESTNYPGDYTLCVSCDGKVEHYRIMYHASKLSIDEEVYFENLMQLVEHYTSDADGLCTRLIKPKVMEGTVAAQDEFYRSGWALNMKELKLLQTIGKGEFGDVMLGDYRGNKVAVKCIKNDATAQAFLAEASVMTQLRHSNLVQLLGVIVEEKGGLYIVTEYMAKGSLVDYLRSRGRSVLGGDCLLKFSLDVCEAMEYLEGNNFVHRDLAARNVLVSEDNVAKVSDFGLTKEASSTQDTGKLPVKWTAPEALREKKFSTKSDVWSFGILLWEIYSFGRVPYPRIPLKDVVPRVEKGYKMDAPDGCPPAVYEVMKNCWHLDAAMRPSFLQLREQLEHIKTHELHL
QUANTITY_KIND: residual activity (%)
Answers are plain numbers, in %.

Below, each entry is followed by its recorded residual activity result.
1. O=C1Nc2nc(-c3c(O)cccc3OCC3CC3)cc(C3CCCNC3)c2CO1 (stereo unspecified)	91
2. NS(=O)(=O)OC[C@@H]1C[C@@H](n2ccc3c(N[C@H]4CCc5ccccc54)ncnc32)C[C@@H]1O	78
3. N#Cc1c(C2CCNCC2)cc(-c2c(O)cccc2OCC2CC2)nc1N	83
4. COc1ccc(-n2ncc3cnc(Nc4cc(OC)c(OC)c(OCCCN5CCN(C)CC5)c4)nc32)cc1	38

Give one value of residual activity per listed compound.
1. O=C(Nc1ccccc1-c1cn2c(CN3CCNCC3)csc2n1)c1cnc2ccccc2n1
2. NC(=O)c1c(NC(=O)C2CC2)sc2c1CCCC2

Solution:
[85, 96]

----------
Please provide measured residual activity for the entries that follow.
biological target: TBK1 (human); assay: radiometric filter-binding kinase assay; details: compound 1.0 µM
One number for each entry, in %.

1. O=C(Nc1ccccc1-c1cn2c(CN3CCNCC3)csc2n1)c1cnc2ccccc2n1	91
2. NC(=O)c1cc(-c2ccnc(NC3CCCCC3)c2)nc(N2CCNCC2)c1	88
3. CC1=C(CO)C(=O)O[C@@H]([C@@H](C)[C@H]2CC[C@H]3[C@@H]4C[C@H]5O[C@]56[C@@H](O)C=CC(=O)[C@]6(C)C4CC[C@]23C)C1 (some centres not stated)	107
4. CCNc1nc(Nc2cc(F)c(C(=O)N3CCOCC3)cc2OC)ncc1C(F)(F)F	62
5. O=C(Nc1nc2cc(C(F)(F)F)cc(NC3CC3)n2n1)c1cccnc1	102
6. O=C1NC(=S)N[C@@H]1Cc1c[nH]c2ccccc12	106

Exercise: Read off the recorded residual activity for Cc1cc(SCc2sc(-c3ccc(C(F)(F)F)cc3)nc2C)ccc1OCC(=O)O
Solution: 102
